test system: SW-620; assay: NCI tumour cell line growth inhibition, 48 h
Activity calls are given as the source filed them. Cut-off read from the data, not from the text of the source: active = GI50 up to about 1.1 µM and inactive = higher.
Classes used: active, inactive

{"compound": "COc1nc(C(Cl)(Cl)Cl)c(Cl)c(O)c1Cl", "answerLabel": "inactive"}
{"compound": "OC[C@H](O)[C@@H](OCc1ccccc1)[C@H](NCc1ccccc1)c1cccs1", "answerLabel": "inactive"}
{"compound": "CCC(=O)Nc1nc2c(ncn2C2OC(COC(=O)CC)C(OC(=O)CC)C2OC(=O)CC)c(=O)[nH]1 (stereo not given)", "answerLabel": "inactive"}
{"compound": "NNC(=O)CCC(=O)NC1C2CC3CC(C2)CC1C3 (stereo not given)", "answerLabel": "inactive"}
{"compound": "COc1ccccc1/C=C1\\CCC(CN2CCOCC2)C1=O (stereo not given)", "answerLabel": "inactive"}
{"compound": "Cc1ccc(/N=N\\c2c(O)ccc3cc(S(=O)(=O)O)ccc23)cc1", "answerLabel": "inactive"}
{"compound": "O=C1/C(=C/c2ccccc2Cl)COc2ccccc21", "answerLabel": "inactive"}
{"compound": "O=C1NC(c2ccccc2Cl)Nc2ccccc21 (stereo not given)", "answerLabel": "inactive"}
{"compound": "O=c1c2cc3ccccc3n2c(=O)c2cc3ccccc3n12", "answerLabel": "inactive"}
{"compound": "c1ccc2c3c([nH]c2c1)C1(CCCCC1)c1c([nH]c2ccccc12)C31CCCCC1", "answerLabel": "inactive"}
{"compound": "Cc1nn2c3c(nnc2c1C#N)C(=O)NN=C(N)S3", "answerLabel": "inactive"}
{"compound": "COc1cc([C@@H]2c3cc4c(cc3[C@@H](NCCNCCO)[C@H]3COC(=O)[C@H]23)OCO4)cc(OC)c1O", "answerLabel": "inactive"}
{"compound": "CN(c1ccccc1Cl)S(=O)(=O)c1ccc([N+](=O)[O-])cc1", "answerLabel": "inactive"}
{"compound": "COC1=CC(=O)c2c(c(O)c3oc4cc(OC)cc(C)c4c(=O)c3c2O)C1=O", "answerLabel": "inactive"}
{"compound": "CCCCc1ccc(Nc2nc(OC)c3ncn(C4CC(O)C(CO)O4)c3n2)cc1 (stereo not given)", "answerLabel": "inactive"}
{"compound": "S=C(Nc1ccccn1)Nc1ccccc1Cl", "answerLabel": "inactive"}
{"compound": "CC(=O)Oc1ccc(/C=C/C(=O)OCCCOC(=O)/C=C/c2ccc(OC(C)=O)c(OC(C)=O)c2)cc1OC(C)=O", "answerLabel": "inactive"}
{"compound": "COC(=O)[C@]1(C)[C@H]2C[C@H]3O[C@H]4[C@H](O)[C@@H](O)OC(CC(O)C(C5=CC(=O)OC5)C(C5=CC(=O)OC5)C(O)CC56CCCCC7[C@@H](C)[C@H](C[C@H]8[C@](C)(C(=O)OC)[C@H](O)CC[C@]78C)O[C@H]([C@@H](O)[C@H](O)O5)[C@H]6O)(CCCCC([C@@H]3C)[C@]2(C)CC[C@@H]1O)[C@H]4O (stereo not given in full)", "answerLabel": "active"}
{"compound": "NC1=NN(c2ccccc2)C(=O)C1/C(=N\\NC(=O)c1cc2ccccc2cc1O)C(=O)Nc1ccc(Cl)cc1 (stereo not given)", "answerLabel": "inactive"}
{"compound": "COc1cc(CC2CCc3nc(N)nc(N)c3C2)cc(OC)c1OC (stereo not given)", "answerLabel": "active"}
